This listing pairs variants with measured self-cleavage.
B1: HDV Ribozyme (parent)
chain: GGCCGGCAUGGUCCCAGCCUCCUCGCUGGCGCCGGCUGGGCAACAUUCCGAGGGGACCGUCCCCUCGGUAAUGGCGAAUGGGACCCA

Variants of: B1
experiment: self-cleavage, relative activity (ratio to wild type); higher = more cleavage; co-transcriptional
In your answer, state the number alone without any accompanying words.

[
  {
    "mutation id": "C4A G82U",
    "self-cleavage": 0.089
  },
  {
    "mutation id": "G10C G11U",
    "self-cleavage": 0.185
  },
  {
    "mutation id": "U69A C75A",
    "self-cleavage": 0.119
  },
  {
    "mutation id": "C64A C84U",
    "self-cleavage": 0.694
  },
  {
    "mutation id": "C24A U27A",
    "self-cleavage": 0.639
  }
]

-- ask Tell me measured self-cleavage for G5A G34A please.
-- reply 0.0978

-- ask Tell me measured self-cleavage for G29A G52C please.
-- reply 0.197

-- ask Tell me measured self-cleavage for C49G G52A please.
-- reply 0.543

-- ask Tell me measured self-cleavage for A71G U72C please.
-- reply 0.705

-- ask Tell me measured self-cleavage for G53U G80C please.
-- reply 0.304

-- ask Tell me measured self-cleavage for G34C G81A please.
-- reply 0.16

-- ask Tell me measured self-cleavage for G1A U9G please.
-- reply 0.302

-- ask Tell me measured self-cleavage for C7U A8U please.
-- reply 0.831

-- ask Tell me measured self-cleavage for G29C C58G please.
-- reply 0.156

-- ask Tell me measured self-cleavage for C49A G81A please.
-- reply 0.242

-- ask Tell me measured self-cleavage for G11U A77U please.
-- reply 0.0906

The reported numbers originate from the RNAGym collection of RNA variant scans (doi:10.7554/elife.80360).
